test: HT29 colon tumor cell growth inhibition, primary screen, imaging, high content imaging, 48 h, CellTiter-Glo (AID 771); settings: HCS imaging cell count, measured here: percent cells with condensed nuclei, at 10 µM, stronger effect = higher value;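 further: condensed means Hoechst nuclear area under control median minus 1.5 SD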
The campaign covered roughly 3,300 compounds. About 55 (2%) were called active. Only a selection was taken, and actives are over-represented in it overall.
Listed next: entries and their corresponding condensed nuclei.
Number in %, nothing else.

Illustrative cases are given below, each with its answer.
> print(dat)
                                   compound  result
1              Cc1cc(CC(=O)O)c(C)cc1CC(=O)O    2.43
2    COc1cc2nc(-c3ccccc3)nc(N3CCCC3)c2cc1OC    2.25
3  C=CCn1c(N)c(C(=O)OC(C)(C)C)c2nc3ccccc3nc21    2.73
4  CCOc1cc2nc(-c3ccc(OC)c(OC)c3)nc(N3CCOCC3)c2cc1OC    39.3
5  COC(=O)CN(c1nc(C)c(Br)c(OC)n1)S(=O)(=O)c1ccc(C)cc1     1.9
6  COc1cccc(-c2nc(N3CCN(Cc4ccccc4)CC3)c3ccccc3n2)c1O    2.41
7           Cc1cccc(OCc2nc(C)cc(=O)[nH]2)c1    2.19
8  NC(Cc1ccc(Oc2ccc(O)cc2)cc1)C(=O)O (stereo unspecified)    5.21

input: Would you mind telling me what condensed nuclei value was observed for COCc1cc(=O)[nH]c(Nc2nc3ccccc3o2)n1 ?
output: 2.5

input: Would you mind telling me what condensed nuclei value was observed for C=CCN(C(=O)CCC(=O)O)C1CC(=O)N(c2ccc(OC)cc2)C1=O (stereo unspecified) ?
output: 1.95

input: Would you mind telling me what condensed nuclei value was observed for CCC1CC2(C)NC(=O)c3c(sc4c3CC(C)(C)OC4)N2C1=O (stereo unspecified) ?
output: 0.79
